Molecular target: T1, human matriptase-2 ECD protein his tag (human, UniProt Q8IU80 78-811)
T1 construct: also called human MTP-2 ECD; huMTP-2
T1 sequence: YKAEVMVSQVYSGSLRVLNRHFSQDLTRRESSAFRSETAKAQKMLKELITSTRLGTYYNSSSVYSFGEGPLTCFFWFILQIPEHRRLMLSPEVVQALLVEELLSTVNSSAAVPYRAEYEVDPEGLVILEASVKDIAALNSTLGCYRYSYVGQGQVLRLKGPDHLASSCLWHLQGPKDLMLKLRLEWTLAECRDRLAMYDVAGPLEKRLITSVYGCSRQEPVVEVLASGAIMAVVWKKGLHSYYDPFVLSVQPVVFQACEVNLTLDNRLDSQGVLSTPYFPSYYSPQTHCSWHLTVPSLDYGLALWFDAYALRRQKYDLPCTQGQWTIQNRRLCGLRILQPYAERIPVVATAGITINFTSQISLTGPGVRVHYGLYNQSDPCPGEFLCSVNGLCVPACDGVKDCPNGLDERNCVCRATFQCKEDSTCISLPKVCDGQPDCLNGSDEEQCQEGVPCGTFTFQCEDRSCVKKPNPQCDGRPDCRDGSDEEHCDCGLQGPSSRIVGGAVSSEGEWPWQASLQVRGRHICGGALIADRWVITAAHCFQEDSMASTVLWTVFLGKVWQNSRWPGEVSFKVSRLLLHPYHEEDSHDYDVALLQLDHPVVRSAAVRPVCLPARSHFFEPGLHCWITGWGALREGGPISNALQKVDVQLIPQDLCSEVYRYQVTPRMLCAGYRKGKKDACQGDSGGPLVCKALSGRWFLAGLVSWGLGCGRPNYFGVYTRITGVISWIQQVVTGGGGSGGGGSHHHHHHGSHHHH
Test: SPR (Biacore 8K), huIgG4PE captured on anti-human Fc, MTP-2 ECD as analyte, 1:1 fit
Hi! Could you tag entries with Stoichiometry below 0.9 as 1.0, and those at or above as 0.0? Much appreciated.

Below 0.9 on Stoichiometry? Entry NORI-008 (antibody, human IgG4 S228P, kappa, V domains shown, human IgG4PE, kappa, in the in vitro assays; a mouse IgG1 format was used in one in vivo study only; also called NORI-008 hulgG4PE; NORI-008 IgG) VH: QVQLQESGPGLVKPSETLSLTCSVSGGSVSSGRYYWTWIRQPPGKGLEWIGYISNSGNTNYNPSLKSRVTISLDTSKKQFSLSLSAVTAADTAVYYCARGFIYDYWFDPWGQGSLVTVSS VL: DSQMTQSPSSLSASVGDRVTITCQASQDIDNYLNWYQQRPGKAPKLLIYDASKLETGVPSRFSGSGSGTDFTFTISSLQPEDFATYYCQQYGNLPITFGQGTRLDIKR 1.0

A record lists NORI-013 (antibody, human IgG4 S228P, lambda, V domains shown, human IgG4PE, lambda) VH: EVQLVESGGGLIQAGRSLRLSCAASGFTFDEHVIYWVRQIPGKGLEWISSISWKSDIIAYADSVKGRFTISRDNAKNALYLQMNSLRAEDTALYYCAREKDGDFYYYYFAMDVWGQGTTVTVSS VL: QSALTQPPSASGSPGQSVTLSCTGTSSDVGYYNYVSWYLQHPGKAPKLMIYEVSKRPSGVPDRFSGSKSANTASLTVSGLQAEDEADYYCSSYAGSNKVVFGGGTKVTVLG . Is its Stoichiometry below 0.9? 0.0

For this binder, is Stoichiometry lower than 0.9? NORI-009 (antibody, human IgG4 S228P, lambda, V domains shown, human IgG4PE, lambda) VH: EVQLVESGGGLVQPGRSLRLSCAASGFTFNDHVIYWVRQVPGKGLEWVSTISWNSDTIAYADSVKGRFTISRDNAKNALYLQMNSLRTEDTALYYCAREKDGDFYYDYFAMDVWGQGTTVTVSS VL: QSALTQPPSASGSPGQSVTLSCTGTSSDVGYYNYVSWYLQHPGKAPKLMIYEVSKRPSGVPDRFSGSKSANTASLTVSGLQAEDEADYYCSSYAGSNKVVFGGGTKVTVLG 1.0

Lab note: Stoichiometry threshold 0.9. Does this binder come in strictly under it? NORI-012 (antibody, human IgG4 S228P, lambda, V domains shown, human IgG4PE, lambda) VH: EVQLVESGGGLVQPGRSLRLSCAASGFTFDDHVMYWVRQAPGKGLEWVSGISWNSDTIGYADAVKGRFTISRDNAKNVLYLHMNSLRPEDTALYYCAREKDGDFYYNYFVMDVWGQGTTVTVSP VL: QSALTQPPSASGSPGQSVTISCTGTSSDVGFYNFVSWYQQHPDKAPKVMIYEVSKRPSGVPDRFSGSKSGNTASLTVSGLQAEDEADYYCSSYAGSNKVVFGGGTKLTVLG 1.0
